For each record, write down the corresponding protein stability index.
B1: WDR88 (parent)
chain: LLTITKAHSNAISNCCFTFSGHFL

# Variants of: B1
# ASSAY TEXT: protein stability index of a GFP-peptide fusion (GPS, HEK-293T) (PSI 1-6); higher = more stable;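 also: lentivirally expressed fusions sorted by FACS into six bins by GFP to DsRed ratio, PSI derived from sequencing read proportions per bin multiplied by bin number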
# APPLIED CONDITIONS: c terminus: a fixed tail appended
Answers are plain numbers.

mutation=T5P result_type="protein stability index" observed_result=2.98
mutation=L24M result_type="protein stability index" observed_result=2.98
mutation=N14M result_type="protein stability index" observed_result=2.99
mutation=L24K result_type="protein stability index" observed_result=2.93
mutation=I12G result_type="protein stability index" observed_result=2.96

// for each variant in input: emit protein stability index
1. N10T
2. C15M
3. L1P

1. 3.75
2. 2.19
3. 2.81
